Please go through the items and note down their IC50.
Biological target: T1, SPOP MATH domain (SPOP^MATH; residues 28-166) (human, UniProt O43791 28-166)
T1 chain: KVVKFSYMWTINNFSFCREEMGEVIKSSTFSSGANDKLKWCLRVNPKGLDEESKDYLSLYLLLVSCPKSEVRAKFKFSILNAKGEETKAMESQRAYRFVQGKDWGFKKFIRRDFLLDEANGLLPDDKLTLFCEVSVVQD
Test: FP

Here's what some known entries look like.
>>> data_value("DKGSVQAPEISSNSIKD (SET domain-containing protein 2 (SETD2), human; also called SET domain-containing protein 2; source: synthetic peptide) [SETD2 17-mer peptide DKGSVQAPEISSNSIKD (printed 363-1379)]")
"~699 µM"
>>> data_value("LVSSTSEGY [Caprin1 9-mer peptide]")
"~773 µM"

Inquiry: Note IC50 for the binder shown: DTDNLQSEQLSSSSDGS [SENP7 17-mer peptide]
Reply text: ~2400 µM
